# EXPERIMENTAL_TARGET: Vascular endothelial growth factor receptor 2 (Homo sapiens) (UniProt P35968)
# Sequence (P35968 whole entry): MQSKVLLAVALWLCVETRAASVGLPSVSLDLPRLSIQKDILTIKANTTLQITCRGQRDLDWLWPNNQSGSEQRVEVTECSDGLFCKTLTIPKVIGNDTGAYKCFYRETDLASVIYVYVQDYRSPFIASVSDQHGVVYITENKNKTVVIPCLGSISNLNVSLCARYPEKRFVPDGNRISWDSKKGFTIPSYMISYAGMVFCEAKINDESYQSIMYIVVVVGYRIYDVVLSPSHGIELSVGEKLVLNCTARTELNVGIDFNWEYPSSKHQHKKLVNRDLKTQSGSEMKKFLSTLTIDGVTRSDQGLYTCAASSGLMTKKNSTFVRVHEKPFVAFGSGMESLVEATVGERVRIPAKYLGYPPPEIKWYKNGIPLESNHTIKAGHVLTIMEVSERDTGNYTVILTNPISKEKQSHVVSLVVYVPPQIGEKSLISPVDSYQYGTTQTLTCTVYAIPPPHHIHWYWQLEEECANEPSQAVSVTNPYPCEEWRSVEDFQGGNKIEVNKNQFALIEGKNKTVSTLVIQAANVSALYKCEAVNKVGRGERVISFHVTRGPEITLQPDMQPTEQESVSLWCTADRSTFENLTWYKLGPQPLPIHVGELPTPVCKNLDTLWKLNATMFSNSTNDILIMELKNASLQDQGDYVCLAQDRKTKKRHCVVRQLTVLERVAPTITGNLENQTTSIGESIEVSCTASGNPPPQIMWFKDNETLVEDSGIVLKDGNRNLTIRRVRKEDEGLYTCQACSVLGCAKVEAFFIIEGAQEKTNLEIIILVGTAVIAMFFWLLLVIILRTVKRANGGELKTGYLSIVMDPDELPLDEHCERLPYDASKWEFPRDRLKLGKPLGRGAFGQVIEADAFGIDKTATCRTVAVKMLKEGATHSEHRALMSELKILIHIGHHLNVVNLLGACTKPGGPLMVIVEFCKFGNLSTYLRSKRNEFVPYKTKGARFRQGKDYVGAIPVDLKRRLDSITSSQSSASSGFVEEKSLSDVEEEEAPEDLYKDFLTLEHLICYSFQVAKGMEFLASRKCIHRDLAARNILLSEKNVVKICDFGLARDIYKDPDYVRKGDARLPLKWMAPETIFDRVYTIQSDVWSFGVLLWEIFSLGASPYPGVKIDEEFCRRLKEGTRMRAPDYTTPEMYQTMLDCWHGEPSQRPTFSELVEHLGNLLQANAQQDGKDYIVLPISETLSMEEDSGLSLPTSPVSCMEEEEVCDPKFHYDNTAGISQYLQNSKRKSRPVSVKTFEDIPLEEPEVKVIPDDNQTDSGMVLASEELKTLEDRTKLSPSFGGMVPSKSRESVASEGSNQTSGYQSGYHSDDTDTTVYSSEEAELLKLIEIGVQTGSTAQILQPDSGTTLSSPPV
# EXPERIMENT_DESCRIPTION: Inhibition of full length His-tagged human recombinant VEGFR2 expressed in baculovirus using Fluorescein-Poly GT as substrate at 100 nM
Recorded inhibition for the following compounds
Write it as a number; the unit % goes unstated.

Query string: GET /values?readout=inhibition&item= COC(=O)c1cc2cc(NCc3cc(NC(=O)c4cccc(C(F)(F)F)c4)ccc3C)cnc2[nH]1
Result string: 38

Query string: Same for Cc1ccc(NC(=O)c2ccc(CN3CCN(C)CC3)cc2)cc1CNc1cnc2[nH]c(C(=O)O)cc2c1
Result string: 72

Query string: Okay, and CNC(=O)c1cc2cc(NCc3cc(NC(=O)c4ccc(CN5CCN(C)CC5)cc4)ccc3C)cnc2[nH]1 ?
Result string: 93

Query string: // repeat for COC(=O)c1cc2cc(/C=C/c3cc(NC(=O)c4ccc(CN5CCC(N(C)C)C5)c(C(F)(F)F)c4)ccc3C)cnc2[nH]1 (configuration not stated) and report
Result string: 61

***
Query string: Reported inhibition, compound COC(=O)c1cc2cc(NCc3cc(NC(=O)c4ccc5c(c4)OCO5)ccc3C)cnc2[nH]1 : ____
Result string: 58

Query string: Now the same for CC(=O)c1cc2cc(NCc3cc(NC(=O)c4ccc(CN5CCN(C)CC5)cc4)ccc3C)cnc2[nH]1
Result string: 88

Query string: Do the same for COC(=O)c1cc2cc(NCc3cc(NC(=O)c4ccc(CN5CCN(C)CC5)cc4)ccc3C)cnc2[nH]1 please
Result string: 73

Cited source: ChEMBL document CHEMBL3808348
